B1: TIA1 (parent)
chain: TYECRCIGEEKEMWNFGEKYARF

# Variants of: B1
# assay method text: protein stability index of a GFP-peptide fusion (GPS, HEK-293T) (PSI 1-6); higher = more stable;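 also: lentivirally expressed fusions sorted by FACS into six bins by GFP to DsRed ratio, PSI derived from sequencing read proportions per bin multiplied by bin number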
# condition context: c terminus: native

mutant designation: G17H
protein stability index: 2

mutant designation: E18C
protein stability index: 2.41

mutant designation: G17N
protein stability index: 3.29

mutant designation: Y20P
protein stability index: 1.11

mutant designation: C6Q
protein stability index: 3.9

mutant designation: E18P
protein stability index: 1.65

mutant designation: E10Q
protein stability index: 1.71

mutant designation: F23A
protein stability index: 3.29

mutant designation: M13R
protein stability index: 2.11

mutant designation: R5Y
protein stability index: 1.35

mutant designation: N15C
protein stability index: 1.96

mutant designation: R22T
protein stability index: 2.49

mutant designation: A21I
protein stability index: 2.72

mutant designation: C6F
protein stability index: 3.08

mutant designation: T1L
protein stability index: 1.7

mutant designation: I7K
protein stability index: 2.18

mutant designation: T1W
protein stability index: 1.68

mutant designation: R22W
protein stability index: 1.6

mutant designation: R5C
protein stability index: 1.97

mutant designation: E10L
protein stability index: 2.25

mutant designation: N15P
protein stability index: 2.25

mutant designation: K11D
protein stability index: 2.38

mutant designation: C4F
protein stability index: 2.28

mutant designation: T1G
protein stability index: 2.27

mutant designation: E9S
protein stability index: 1.84

mutant designation: K19L
protein stability index: 1.59

mutant designation: K19M
protein stability index: 1.29

mutant designation: R5G
protein stability index: 2.93

mutant designation: C6K
protein stability index: 3.64

mutant designation: M13Q
protein stability index: 1.71

mutant designation: E3G
protein stability index: 2.14

mutant designation: F16Y
protein stability index: 2.2

mutant designation: A21H
protein stability index: 3.06

mutant designation: R22G
protein stability index: 2.63

mutant designation: A21L
protein stability index: 2.19

mutant designation: C4H
protein stability index: 3.33

mutant designation: G8H
protein stability index: 1.46

mutant designation: W14K
protein stability index: 1.6

mutant designation: E12R
protein stability index: 1.42

mutant designation: I7N
protein stability index: 2.66

mutant designation: K11T
protein stability index: 3.28
